Molecular target: T1, purified Dvl2PDZ domain polypeptide (human, UniProt O14641 248-364)
T1 construct: range 248-364; As used in the fluorescence polarization assay; also called DvlPDZ domain
T1 sequence (looked up): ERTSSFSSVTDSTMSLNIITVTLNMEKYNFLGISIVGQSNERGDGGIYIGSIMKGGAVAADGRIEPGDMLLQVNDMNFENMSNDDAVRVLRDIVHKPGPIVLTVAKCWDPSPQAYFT
Assay: fluorescence polarization, direct titration of Dvl2PDZ against 10 nM probe
Parameter: Kd

Quick check: Kd of {FAM}-KWYGWL-OH (fluorescence polarization probe, 10 nM) [probe peptide (FAM-KWYGWL-COOH)] ?
536 nM
